protocol.notes: soluble on expression in E. coli; label from the status in PepcDB or PDB records
readout.type: soluble on expression in E. coli

# record.sequence, observed.value
data = [
    ("MGSDKIHHHHHHMIDGDSSPLLRKQSPYPHWQYLHPESGDRLRIVPERGGLVTDWCCNGHELLYLDQERFADPEKSIRGGIPVLFPICGNLPGDLLPLPSGEFILKQHGFARDQPWELQLLEDHSGVKLSFVDSEETRAAYPFSFLLEMVVRPIRNALEIDVNVHNRSQSAMPFSFGLHPYFKVTDLNKVRLEGLPNSCLNHLQMAEAETAIQLAALTEGVDFLTRPAGPVTLVDEASGRSLQLQHENPMDLTVVWTDPPRQMLCLEPWTGPREALISGDRKLEIEAGGQQRLRCSFSINLEKTVRAASC", "not soluble"),
    ("KSITIQTPYLIPDQPIYESLTIALAAGVKVNIFIPDRPDHPFVYRATQYYAQEFIDFGANVYRYDGGFLHSKLLIIDDEIVSIGSANMDIRSFELSFEANAFIYSSYFAKKIEKQISIDISKSKLLSKKDFETQ", "not soluble"),
]

====

protocol.notes: soluble on expression in E. coli; label from the status in PepcDB or PDB records
readout.type: soluble on expression in E. coli

See these solved cases before continuing.
# record.sequence, readout.type, observed.value
measured = [
    ("MEKLSSSSHFLDLGGLDNLRAQAQKDEKGALKKVAQQFEGVFVQMLMKSMRDANAVFESDSPLNSQYTKFYEQMRDQQLSVDLSDKGVLGLADMMVQQLSPESSPFTPASVLRNDGGMKLEHDAKALNIPTQTPSTAEAESANTPVVVAHGVPASIARPSVEFEDNNGVTSSLDIDRPQRLLAIDTPKPTWSEQPLSAIEPVISGQILPTVAFRETQKTLKFGSREEFLATLYPHAEKAAKALGTKPEVLLAQSALETGWGQKIVRGHNGAPSHNLFNIKADRRWQGDKANVSTLEFEQGIAVRQKADFRVYNDFDHSFNDFVSFIADGERYQDAKKVAASPTQFIRALQEAGYATDPKYAEKVIKVMQSISEELKSILPGEDK", "soluble on expression in E. coli", "not soluble"),
    ("THGAQHANPVVSGSVSPRPAPAKEQPSVAPSQSSVPPQPSIGEQRRQPETTAPTITEDKPEQTKVVPPTRPMATSTVGSEGRFTLRGIRNKQEQLQNNIQEVRTEMTESFDEEQLQLAWIEFAETKLSEEIHLKETMANCLPKLRPGTSAFEVEVLNSRQEEEINNVSARLLSFLADKLCNTTIRMNVRVSESTSLNRVPVSLDEKIERLNQENPLFDELRMRLGLSLV", "soluble on expression in E. coli", "not soluble"),
    ("MAHHHHHHMQLPRKRGTQRRRAHRRNWRDCTSLCTMRGGAMRWNFRTAWSERKQGTGMGVHEGKPEQSWTYKKADDAIKKNDAVQQFGAAPPVLMVLASDKGWPYSWNTIQDLPKDFFVNCEVDRAWQIVKGDLTAWFSPHGGTDFTPKRRVLIGTPGIGKSVAAGSYLLY", "soluble on expression in E. coli", "not soluble"),
    ("SQTVHFQGNPVTVANSIPQAGSKAQTFTLVAKDLSDVTLGQFAGKRKVLNIFPSIDTGVSAASVRKFNQLATEIDNTVVLCISADLPFAQSRFCGAEGLNNVITLSTFRNAEFLQAYGVAIADGPLKGLAARAVVVIDENDNVIFSQLVDEITTEPDYEAALAVLKA", "soluble on expression in E. coli", "soluble"),
]

Ask: Answer with reported soluble on expression in E. coli of SGVTGAHGFPCCGKGSVEVAEMRDDLSQHQIQEEQELEADMLEQKPQLQVDLDLDPDPDPDPELEIGQVPALLESELYPALKLEAELDTEANSNEESDFEEPMQLVCKIESVHSNMGLPTPQTFRPWSLNSNCRSFTEENHMSACHHSISAQTSKHLFWANKLIQASEHSLQRAINMQLNNGSAGQPIRSPLREAIPTNALCSEEQLQIPDAHSAPPTTSSQAPSPLLSSDLPPPIDLTELITFASSLAMASSSRMDLPSLEHMMKAPPQEALEPSTEPLLTTVEEREPENHAETLPEKPREARAPLKSWSQEDKNFAQSYFDFSKPGIKRATIKGQIQLLQPPATSPLLQGSKEDSVPPGKEKENPLLVKIHFKLSAPTIPEK
Reply: soluble

Ask: Answer with reported soluble on expression in E. coli of MTKKQLHLVIVTGMSGAGKTVAIQSFEDLGYFTIDNMPPALLPKFLQLVEIKEDNPKLALVVDMRSRSFFSEIQAVLDELENQDGLDFKILFLDAADKELVARYKETRRSHPLAADGRILDGIKLERELLAPLKNMSQNVVDTTELTPRELRKTLAEQFSDQEQAQSFRIEVMSFGFKYGIPIDADLVFDVRFLPNPYYLPELRNQTGVDEPVYDYVMNHPESEDFYQHLLALIEPILPSYQKEGKSVLTIAMGCTGGQHRSVAFAKRLAQDLSKNWSVNEGHRDKDRRKETVNRS
Reply: not soluble
